Where do these numbers come from? They come from patent US20230192896A1.

# Tested system: T1, FIXa-SM (FIXa+EGR-CMK) (human, UniProt P00740 47-191; P00740 227-461, EGR-CMK (L-Glu-Gly-Arg chloromethyl ketone) covalently bound to the active site)
# T1 construct: BLI antigen bought from Haematologic Technologies (HCIXA-EGR); also called FIXa with substrate mimic
# Protocol notes: BLI; class meaning: paragraph 914
Observable: binding result

Binder | Observable | Value reported
BIIB-9-565 (antibody, V domains shown, IgG) VH: QLQLQESGPGLVKPSETLSLTCTVSGGSISSSSYYWGWIRQPPGKGLEWIGSIYYSGSTYYNPSLKSRVTISVDTSKNQFSLKLSSVTAADTAVYYCARAGMYSSYANWFDPWGQGTLVTVSS VL: EIVLTQSPATLSLSPGERATLSCRASQSVSSYLAWYQQKPGQAPRLLIYDASNRATGIPARFSGSGSGTDFTLTISSLEPEDFAVYYCQQDSNLPFTFGGGTKVEIK | binding result | binds
BIIB-9-590 (antibody, V domains shown, IgG) VH: QVQLVQSGAEVKKPGASVKVSCKASGYTFTSYYMHWVRQAPGQGLEWMGIINPSGGSTSYAQKFQGRVTMTRDTSTSTVYMELSSLRSEDTAVYYCARDQEWAYYGMDVWGQGTTVTVSS VL: EIVLTQSPATLSLSPGERATLSCRASQSVSSYLAWYQQKPGQAPRLLIYDASNRATGIPARFSGSGSGTDFTLTISSLEPEDFAVYYCQQVDNFPLTFGGGTKVEIK | binding result | binds
BIIB-9-1268 (antibody, V domains shown, IgG) VH: QVQLVQSGAEVKKPGASVKVSCKASGYTFTSYYMHWVRQAPGQGLEWMGIINPSGGSTSYAQKFQGRVTMTRDTSTSTVYMELSSLRSEDTAVYYCARDPPSWYVFDIWGQGTMVTVSS VL: EIVMTQSPATLSLSPGERATLSCRASQSVSSYLAWYQQKPGQAPRLLIYDASNRATGIPARFSGSGSGTDFTLTISSLEPEDFAVYYCQQATVWPFTFGGGTKVEIK | binding result | binds
BIIB-9-628 (antibody, V domains shown, IgG) VH: QVQLVQSGAEVKKPGASVKVSCKASGYTFTSYYMHWVRQAPGQGLEWMGIINPSGGSTSYAQKFQGRVTMTRDTSTSTVYMELSSLRSEDTAVYYCAREPIAYGATLDLWGRGTLVTVSS VL: EIVLTQSPGTLSLSPGERATLSCRASQSVSSDYLAWYQQKPGQAPRLLIYGASSRATGIPDRFSGSGSGTDFTLTISRLEPEDFAVYYCQQYVVFPFTFGGGTKVEIK | binding result | binds
BIIB-9-445 (antibody, V domains shown, IgG) VH: QVQLVQSGAEVKKPGASVKVSCKASGYTFTSYYIHWVRQAPGQGLEWMGIINPSGGSTSYAQKFQGRVTMTRDTSTSTVYMELSSLRSEDTAVYYCARDVGQDYWFDLWGRGTLVTVSS VL: EIVMTQSPATLSVSPGERATLSCRASQSVSSNLAWYQQKPGQAPRLLIYSASTRATGIPARFSGSGSGTEFTLTISSLQSEDFAVYYCQQYDNFPFTFGGGTKVEIK | binding result | binds

Supply binding result value. Item: BIIB-9-581 (antibody, V domains shown, IgG) VH: QVQLVQSGAEVKKPGASVKVSCKASGYTFTSYYMHWVRQAPGQGLEWMGIINPSGGSTSYAQKFQGRVTMTRDTSTSTVYMELSSLRSEDTAVYYCARDPLYYREGYVFDYWGQGTLVTVSS VL: DIQMTQSPSSLSASVGDRVTITCRASQSISSYLNWYQQKPGKAPKLLIYAASSLQSGVPSRFSGSGSGTDFTLTISSLQPEDFATYYCQQSDLFPFTFGGGTKVEIK
binds

Supply binding result value. Item: BIIB-9-471 (antibody, V domains shown, IgG) VH: QVQLQESGPGLVKPSQTLSLTCTVSGGSISSGGYYWSWIRQHPGKGLEWIGYIYYSGSTYYNPSLKSRVTISVDTSKNQFSLKLSSVTAADTAVYYCARSGVSGSGSDNWFDPWGQGTTVTVSS VL: EIVLTQSPATLSLSPGERATLSCRASQSVSRYLAWYQQKPGQAPRLLIYDASNRATGIPARFSGSGSGTDFTLTISSLEPEDFAVYYCQQDYNYPFTFGGGTKVEIK
binds

Supply binding result value. Item: BIIB-9-607 (antibody, V domains shown, IgG) VH: QLQLQESGPGLVKPSETLSLTCTVSGGSISSSSYYWGWIRQPPGKGLEWIGSISYSGSTYYNPSLKSRVTISVDTSKNQFSLKLSSVTAADTAVYYCARDRGYSYEDFDLWGRGTLVTVS VL: DIQMTQSPSTLSASVGDRVTITCRASQSISSWLAWYQQKPGKAPKLLIYKASSLESGVPSRFSGSGSGTEFTLTISSLQPDDFATYYCQQAGRYPLTFGGGTKVEIK
binds

Supply binding result value. Item: BIIB-9-1281 (antibody, V domains shown, IgG) VH: QVQLQQWGAGLLKPSETLSLTCAVYGGSFSGYYWSWIRQPPGKGLEWIGEIDHSGSTNYNPSLKSRVTISVDTSKNQFSLKLSSVTAADTAVYYCARTTRSKYYGMDVWGQGTMVTVSS VL: DIQMTQSPSTLSASVGDRVTITCRASQSISSWLAWYQQKPGKAPKLLIYKASSLESGVPSRFSGSGSGTDFTLTISSLQPEDFATYYCQQAISLPITFGGGTKVEIK
binds

Supply binding result value. Item: BIIB-9-1277 (antibody, V domains shown, IgG) VH: QVQLVQSGAEVKKPGASVKVSCKASGYTFTSYYMHWVRQAPGQGLEWMGIINPSGGSTSYAQKFQGRVTMTRDTSTSTVYMELSSLRSEDTAVYYCARGGTGYYYGSGSRDGYHYYYGMDVWGQGTTVTVSS VL: EIVMTQSPATLSVSPGERATLSCRASQSVSSYLAWYQQKPGQAPRLLIYDASNRATGIPARFSGSGSGTDFTLTISSLEPEDLAVYYCQQSANWPPTFGGGTKVEIK
binds
